target: Cynomolgus monkey C5 (cynomolgus monkey, UniProt A0A2K5U1T1 19-1676); test: cell-based or functional assay
Below, each entry is listed with its recorded Cyno Serum CP IC50, hemolysis assay, 5% serum.
Result type: Cyno Serum CP IC50, hemolysis assay, 5% serum (nM)

* H4H12164P (antibody, human IgG4, V domains shown, H4H: human IgG4 Fc with S108P hinge mutation) VH: EVQLVESGGGLVRSGGSLRLSCAASGFTFNRYAMTWVRQAPGKGLEWVSAISGSGSSTYYTDSVKGRFTISRDNSKNSVDLQMHSLRVEDTAIYYCARGTTVTTGYGMDVWGQGTTVTVSS VL: DIQMTQSPSSLSASVGDRVTFTCQASQDITNSLNWYQQKPGRAPKLLIYDASYLKAGVPSRFSGSGSGTDFTFTISSLQPEDIATYYCQQYDDLPYTFGQGTKLEIK | 19.6
* H4H12170P (antibody, human IgG4, V domains shown, H4H: human IgG4 Fc with S108P hinge mutation) VH: QVQLVESGGGVVQPGRSLRLSCAASGFTFSGYGMHWVRQAPGKGLEWVALIWLDGSNDYYADSVKGRFTISRDNSKNTLYLQMNRLRAEDTAVYYCARDGPVAAIPDYWGQGTLVTVSS VL: DIQMTQSPSTLSASVGDRVTITCRASQSISRWLAWYQLKPGKAPKLLIYKASSLESGVPSRFSGSGSGTDFTLTISSLQPDDFATYYCQQYNTYSYTFGQGTKLEIK | 8.2
* H4H12175P (antibody, human IgG4, V domains shown, H4H: human IgG4 Fc with S108P hinge mutation) VH: EVQLVESGGGVVQPGGSLRLSCAASGFTFNDYAMHWVRQAPGKGLEWVSLISGDGGNTYYADSVKGRLTISRDNSKNSLYLQMNSLRTEDTALYYCAKDKGWNFGYFDLWGRGTLVTVSS VL: DIQMTQSPSSLSTSVGDRVTITCRASQNIDTYLNWYQQKPGKAPKLLIYDASSLQSGVPSRFSGSGSGTDFTLTITSLQPEDFATYYCQQNDNILHPLTFGGGTKVEIK | 10.9
* H4H12163P (antibody, human IgG4, V domains shown, H4H: human IgG4 Fc with S108P hinge mutation) VH: EVQLVESGGDLVQPGGSLRLSCAASGFTFSSYAMNWVRQGPGKGLEWVSAISGRGDSTYYADSVKGRLTISRDNSKNTLYLQMNSLRAEDTAVYYCVKEGEQLVYWYFDLWGRGTLVTVSS VL: DIQMTQSPSSLSASVGDRVTITCRASQTISNFLHWYQQKPGKAPKLLIYAASSLQSGVPSRFSGSGSGTDFTLTISSLQPEDFSTYFCQQSYTTPLTFGGGTKVEIK | 16.5
* H4H12167P (antibody, human IgG4, V domains shown, H4H: human IgG4 Fc with S108P hinge mutation) VH: QVQLVESGGGLVKPGGSLRLSCAASGFTFSDSYMSWIRQAPGKGLEWISYIGSSGNTFYYADSVKGRFTISRDNANNLLYLQMTSLRAEDTAVYYCAREEGDFWSAVDSWGQGTLVTVSS VL: DIQLTQSPSFLSASVGDRVTITCWASQGISSYLAWYQQKPGKAPKLLIHTASTLQSGVPSRFSGSGSGTEFTLTISNLQPEDFATYYCQQLNSYPFTFGPGTKVDIK | 21.3
